Data credit: patent US20070015138A1

System: cultured human neural stem cells (hNSCs)
Experimental details: Automated differentiation assay using monolayer cultures, neuronal lineage (Tuj1 staining per Hoechst-counted cell)
Type: cell-based
Measurement context: Homo sapiens, Neural stem cell; plus 10 μM dopamine; FIG. 2B; read-out: EC50, neuronal differentiation in combination with dopamine

>  <Compound>
CC(N)Cc1ccccc1 (stereo not shown) [amphetamine]

>  <Measured target>
cultured human neural stem cells (hNSCs)

>  <EC50>
~30 µM

$$$$

====

Test system: cultured human neural stem cells (hNSCs)
Experimental details: Automated differentiation assay using monolayer cultures, neuronal lineage (Tuj1 staining per Hoechst-counted cell)
Type: cell-based
Measurement context: Homo sapiens, Neural stem cell; mean of two independent experiments; FIG. 3A; read-out: EC50, neuronal differentiation, agent by itself
pEC50: −log10 of the molar value.

>  <Compound>
NC[C@H](O)c1ccc(O)c(O)c1 [norepinephrine]

>  <pEC50>
~5.40

$$$$
